Parameter: inhibition at 10 µM. Scope: all listed entries.
# tgt: panel of 203 kinases (Homo sapiens)
# Construct: purchased DiscoverX (KINOMEscan)
# experiment: KINOMEscan competitive binding, whole panel
# experimental.context: 10 µM, n=1; kinase DAPK3; read-out: Percent inhibition DAPK3
Reply with a number, then the unit it belongs to.

// worked examples, inhibition at 10 µM included
Read off the recorded inhibition at 10 µM for Cc1ccc(O)cc1Nc1ccnc(Nc2cccc(C(N)=O)c2)n1 [Compound 3]
0%

Read off the recorded inhibition at 10 µM for COc1cc(Nc2nccc(-c3sc(N)nc3-c3cccc(NC(=O)c4c(F)cccc4F)c3)n2)cc(OC)c1OC [Compound 7]
0%

Read off the recorded inhibition at 10 µM for COc1ccc(Nc2nccc(-c3cnn4ncccc34)n2)cc1 [Compound 2]
0%

Read off the recorded inhibition at 10 µM for Nc1ncc2c(-c3ccncc3)c[nH]c2n1 [Compound 11]
0%

Read off the recorded inhibition at 10 µM for Fc1cccc(COc2ccc(Nc3ncnc4c3CN(CCN3CCOCC3)CC4)cc2Cl)c1 [Compound 6]
0%

---
Read off the recorded inhibition at 10 µM for c1ccc(COc2cccc(-c3ccnc4[nH]ccc34)c2)cc1 [Compound 9]
0%

Read off the recorded inhibition at 10 µM for Clc1ccc(Nc2ncc(-c3ccccc3)s2)cc1 [Compound 10]
0%

Read off the recorded inhibition at 10 µM for CN1CCN(c2ccc(Nc3nccc(-c4cnn5ncccc45)n3)cc2C#N)CC1 [Compound 1]
98.5%

Read off the recorded inhibition at 10 µM for C[C@@H](Oc1cc(-c2cnc3ccccn23)sc1C(N)=O)c1ccccc1Cl [Compound 8]
89.3%

Read off the recorded inhibition at 10 µM for Cc1ccc(O)cc1N(C)c1ccnc(Nc2cccc(S(N)(=O)=O)c2)n1 [Compound 4]
0%

---

# tgt: panel of 203 kinases (Homo sapiens, UniProt O94768)
# Construct: purchased DiscoverX (KINOMEscan)
# Sequence (O94768 1-372): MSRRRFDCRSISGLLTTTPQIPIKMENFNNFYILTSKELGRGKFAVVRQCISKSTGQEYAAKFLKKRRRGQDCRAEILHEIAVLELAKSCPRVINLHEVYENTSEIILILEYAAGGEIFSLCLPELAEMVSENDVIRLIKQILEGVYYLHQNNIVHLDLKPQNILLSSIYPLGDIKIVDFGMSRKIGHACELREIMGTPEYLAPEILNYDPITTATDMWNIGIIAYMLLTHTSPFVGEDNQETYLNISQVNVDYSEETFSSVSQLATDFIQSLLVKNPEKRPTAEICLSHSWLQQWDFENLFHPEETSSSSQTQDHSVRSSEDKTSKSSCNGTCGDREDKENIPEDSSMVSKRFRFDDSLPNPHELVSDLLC
# experiment: KINOMEscan competitive binding, whole panel
# experimental.context: 10 µM, n=1; kinase DRAK2; read-out: Percent inhibition DRAK2
readout.name: inhibition at 10 µM (%)
Answer in %, number only, no unit symbol.

Read off the recorded inhibition at 10 µM for "CN1CCN(c2ccc(Nc3nccc(-c4cnn5ncccc45)n3)cc2C#N)CC1"
82.4

---
Read off the recorded inhibition at 10 µM for "C[C@@H](Oc1cc(-c2cnc3ccccn23)sc1C(N)=O)c1ccccc1Cl"
0

Read off the recorded inhibition at 10 µM for "Cc1ccc(O)cc1Nc1ccnc(Nc2cccc(C(N)=O)c2)n1"
0

Read off the recorded inhibition at 10 µM for "Fc1cccc(COc2ccc(Nc3ncnc4c3CN(CCN3CCOCC3)CC4)cc2Cl)c1"
0

Read off the recorded inhibition at 10 µM for "Clc1ccc(Nc2ncc(-c3ccccc3)s2)cc1"
0
